Measured Percent Effect values are reported for all entries that follow.
Assayed target: Sialic acid-binding Ig-like lectin 9 (Homo sapiens) (UniProt Q9Y336)
Sequence (Q9Y336 whole entry): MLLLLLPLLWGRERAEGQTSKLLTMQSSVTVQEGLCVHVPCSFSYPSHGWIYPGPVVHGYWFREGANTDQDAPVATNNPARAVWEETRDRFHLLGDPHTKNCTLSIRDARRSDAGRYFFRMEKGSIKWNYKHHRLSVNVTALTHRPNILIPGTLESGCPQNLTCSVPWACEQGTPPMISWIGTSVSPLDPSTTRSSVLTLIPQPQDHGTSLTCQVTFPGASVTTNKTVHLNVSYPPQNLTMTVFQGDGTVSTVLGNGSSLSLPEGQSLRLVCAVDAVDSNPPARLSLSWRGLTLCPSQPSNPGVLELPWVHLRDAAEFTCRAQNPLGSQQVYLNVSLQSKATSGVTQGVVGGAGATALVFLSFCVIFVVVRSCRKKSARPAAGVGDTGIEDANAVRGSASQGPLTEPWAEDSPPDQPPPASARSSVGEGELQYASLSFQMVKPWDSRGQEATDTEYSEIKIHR
Test details: Hs-Siglec9 ALPHAscreen SOP 20170721
Set-up: scale not given: direction of the effect not stated beside the values
Run conditions: 10 µM
The response must be a number in % with no trailing unit.

// solved cases for Percent Effect follow
- Compound: "CCOC(=O)c1sc2ccsc2c1CN"
  Assayed target: "Sialic acid-binding Ig-like lectin 9 (Homo sapiens) (UniProt Q9Y336)"
  Percent Effect / %: -0.173
- Compound: "Cc1ccc(C(=O)NCCCN2CCOCC2)c(Cl)c1"
  Assayed target: "Sialic acid-binding Ig-like lectin 9 (Homo sapiens) (UniProt Q9Y336)"
  Percent Effect / %: 5.34

Entry Cc1ccc(-c2nnc(CN3CCc4cnc(C)nc4C3)o2)cc1 — recorded Percent Effect = 15.5

Entry Cn1ncc2c1C(COCC1CC1)CN(Cc1ccoc1)C2 (configuration not stated) — recorded Percent Effect = -6.93

Entry O=C(c1ccncc1F)N1CCN(CC2CC2)c2ncccc2C1 — recorded Percent Effect = -2.72

Entry COCCNC(=O)CCc1c(C)nn(-c2nc(C)c(C)c(=O)[nH]2)c1C — recorded Percent Effect = -3.83

Entry COC(=O)CNC(=O)CSCc1nc(O)c2c(C)c(C)sc2n1 — recorded Percent Effect = 4.89
